experiment: MITF transcriptional activity suppression – cell-based, SK-MEL-5, single point, luciferase, primary screen (AID 488899)
condition: SK-MEL-5 TRPM1 promoter luciferase, 24 h; at 12.5 µM; active compounds read high
Screen size: about 330,000 compounds; about 2,800 (0.85%) were called active. The entries come from a sample that favours actives as a whole.
Consider the following molecules and their measured inhibition readings.
Numbers only here, please. The scale is %.

Given "O=C(O[C@@H]1[C@H](Cc2ccccc2)NS(=O)(=O)[C@H]2C[C@@H]3C=C[C@]12O3)c1ccccc1Br" , state its recorded inhibition.
-5.01

Another: O=C(Nc1ccccc1Cl)/C(Cl)=C(\Cl)S(=O)c1ccccc1 (stereo unspecified)
97

Another: "CC(=O)c1nc2ccccc2n1Cc1ccccc1"
3.29

Another: "Cc1c(NC(=O)Nc2ccccc2Cl)sc(=S)n1C"
-9.97

Another: "Cc1cc2oc(=O)cc(CN3CCN(Cc4ccccc4)CC3)c2cc1C"
-7.61

New cases:
Given "COc1ccc2ccccc2c1/C=N/NC(=O)c1cc(C)[nH]n1" , state its recorded inhibition.
-14.1

Another: "CC(C)(CCl)C(=O)Nc1ccc(Sc2ccc(F)cc2)cc1"
-9.91

Another: CC1=NNC(=O)C1CCC(=O)N/N=C(\C)c1ccc(Cl)cc1 (stereo unspecified)
2.4

Another: "O=C(CCl)Nc1cccc(CP(=O)(c2ccccc2)c2ccccc2)c1"
5.96

Another: "CCCCCn1c(=O)c(C(=O)OCC)c(Cl)c2ccccc21"
6.88

Another: "CCCN(CCC)S(=O)(=O)c1ccc(C(=O)NNC(=O)c2cc(OC)c(OC)c(OC)c2)cc1"
4.09
